# reported ADCC EC50; entries follow
Target: T1, canine CD20 (canine, UniProt Q3C2E2 1-297)
T1 chain: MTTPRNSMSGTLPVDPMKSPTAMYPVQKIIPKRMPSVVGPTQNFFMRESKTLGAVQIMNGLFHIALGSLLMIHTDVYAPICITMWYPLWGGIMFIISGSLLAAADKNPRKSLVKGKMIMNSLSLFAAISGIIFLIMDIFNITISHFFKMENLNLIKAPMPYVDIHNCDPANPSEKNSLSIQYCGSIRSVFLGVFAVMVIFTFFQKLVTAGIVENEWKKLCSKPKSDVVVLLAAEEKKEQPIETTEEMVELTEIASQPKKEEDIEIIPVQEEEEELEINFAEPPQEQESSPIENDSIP
Experiment: cell-based or functional assay
endpoint-name: ADCC EC50 (nM)

binder	endpoint-name	unit-text	data-value
PMX003 mAb (antibody, V domains shown) VH: EVQLVESGGDLVKPGGSLRLSCVASGITFSRYHMSWVRQAPGKGLQWVAYINSGGSSTSYPDAVKGRFTISRDNAKNTLYLQMDSLRAEDTALYYCTTFDYWGQGTLVTVSS VL: SYVLTQLPSKNVTLKQPAHITCGGDNIGSKSVHWYQQKLGQAPVLIIYYDSRRPTGIPERFSGANSGNTATLTISGALAEDEADYYCQVWDSSANVFGGGTHLTVLG	ADCC EC50	nM	0.89
PMX080 (antibody, V domains shown) VH: EVQLVESGGDLVKPGGSLRLSCVASGLTFSRYYMNWVRQAPGKGLQWVAYIDSGGSPTNYADAVKGRFTISRDNAKNTLYLQMNSLRAEDTAVYYCSSFDYWGQGTLVTVSS VL: SYVVTQLPSNTVTLKQPAHITCGGDNIGSKSVHWYQQKLGQAPVLIIYYDSRRPTGIPERFSGANSGNTATLTISGALAEDEADYYCQVWDSSANVFGGGTHLTVL	ADCC EC50	nM	0.13
PMX071 (antibody, V domains shown) VH: EVHLVESGGDLVKPGGSLRLSCVASGITFNRYYMNWVRQTPGKGLQWVAYIDSGGSPTTYADAVKGRFTISRDNAKNTLYLQMNSLRAEDTAVYYCTSFDYWGQGTLVTVSS VL: SYVLTQLPSKNVTLKQPAHITCGGDNIGSKSVHWYQQKLGQAPILIIYYDTSRPTGIPERFSGANSGNTATLTISGALAEDEADYYCQVWDSSANVFGGGTHLTVL	ADCC EC50	nM	0.15
PMX081 (antibody, V domains shown) VH: EVQLVQSGGDLVKPGGSLRLSCVASGYTFTRYHMSWVRQAPGKGLQWVAFINSDGTGITYGDAVKGRFTISRDNAKNTLYLQMNSLRAEDTAIYYCTTFDSWGQGTLVTVSS VL: SYVLTQLPSKNVTLKQPAHITCGGDNIGSKSVHWYQQKLGQAPILIIYYDSRRPTGIPERFSGANSGNTATLTISGALAEDEADYYCQVWDSSGNVFGGGTHLTVL	ADCC EC50	nM	0.16
